# ASSAY_OVERVIEW: NCI Yeast Anticancer Drug Screen. Data for the rad50 strain (AID 155);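 also: 0% = growth of vehicle-only cultures of the same strain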
# CONDITIONS: S. cerevisiae rad50 strain growth inhibition; at 50.0 µM; active compounds read high
About 79,000 compounds went through this panel and 15% of them were active in at least one assay; those are over-represented in the sample as a whole.
1 (yes) means recorded growth inhibition is 60% or above; 0 (no) means it is below 60%.

Query: Check the entry CCC1(O)C(=O)OCc2c1cc1n(c2=O)Cc2cc3cc([N+](=O)[O-])ccc3nc2-1 (stereo not given) : does growth inhibition equal or exceed 60%?
Reply: 1 (yes)

Query: Check CC(C)(C)OOC(=O)c1ccccc1 too.
Reply: 0 (no)

Query: Check COC1C(C)OC(OC2CC(C)(O)Cc3cc4c(c(O)c32)C(=O)c2c(O)cc3c(c2C4=O)OC2OC3(C)C(O)C(N(C)C)C2O)C(OC)C1(C)OC (stereo not given) too.
Reply: 1 (yes)

Query: Check ClCCN(CCCl)c1ccc(CN2CCCN(Cc3ccc(N(CCCl)CCCl)cc3Cl)C2c2ccncc2)c(Cl)c1 too.
Reply: 1 (yes)

---

I'd be grateful if you could share measured growth inhibition for these entries.
# ASSAY_OVERVIEW: NCI Yeast Anticancer Drug Screen. Data for the rad52 strain (AID 147);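 also: 0% = growth of vehicle-treated control cultures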
# CONDITIONS: S. cerevisiae rad52 mutant growth inhibition; at 3.7 µM; active compounds read high
Compounds without any hit were thinned out: in the full panel of roughly 79,000, 15% have a hit.
All answers are understood in %, so give the number only.

Query: Fill in the blank: the reported growth inhibition of CC1=C[C@H]2O[C@@H]3C[C@H]4OC(=O)/C=C\C=C\C(C(C)O)OCC(O)C(C)CC(=O)OC[C@@]2(C[C@@H]1O)[C@]4(C)[C@@]31CO1 (some centres undefined) is ____.
Reply: 2

Query: Check Cn1cnc(N)c1C(=N)[Se] too.
Reply: 26

Query: Check CC(Cc1ccccc1)N(C)Cc1nc(C2CCC([N+](=O)[O-])O2)no1 (centres undefined) too.
Reply: 14

Query: Check C[C@@]12CCC(=O)C=C1CC[C@H]1C2=CC[C@]2(C)C1CC[C@@]2(C)O (some centres undefined) too.
Reply: -3

Query: Check COc1cc2ccccc2c2cc([N+](=O)[O-])oc12 too.
Reply: 88

Query: Check CC(C)CC(NC(=O)C(N)C(C)C)C(=O)NC(CCCCN)C(=O)Nc1ccc(N(CCCl)CCCl)cc1 (centres undefined) too.
Reply: 28

Query: Check CCc1cccc(C(C)C)c1NC1=C([n+]2ccc(C)cc2)C(=O)c2ccccc2C1=O too.
Reply: 5

Query: Check O=[N+]([O-])c1cc(S(=O)(=O)F)ccc1Cl too.
Reply: 24

Query: Check C/C(CCl)=N/NC1=NC(c2ccccc2Cl)P(=O)(NCCCNP2(=O)SC(N/N=C(/C)CCl)=NC2c2ccccc2Cl)S1 (centres undefined) too.
Reply: -2

---

# ASSAY_OVERVIEW: NCI Yeast Anticancer Drug Screen. Data for the mec2-1 strain (AID 157)
# CONDITIONS: S. cerevisiae mec2-1 strain, at 100.0 µM, active compounds read high
This is part of a sample that, as a whole, favours compounds with a hit. Of some 79,000 tested, about 15% had one in any assay. Activity calls are given as the source filed them. Cut-off read from the data, not from the text of the source: active = growth inhibition above about 70%; inactive = the rest.
I'd be grateful if you could share measured growth inhibition for these entries.

Query: Fill in the blank: the reported growth inhibition of c1ccc(N=c2nc(N3CCOCC3)ss2)cc1 is ____.
Reply: 99% (active)

Query: Check O=C(c1ccccc1)C1C(c2ccccc2[N+](=O)[O-])N1C1CCCCC1 (stereo unspecified) too.
Reply: 88% (active)

Query: Check CC[C@@]1(O)C(=O)OCc2c1cc1n(c2=O)Cc2cc3ccccc3nc2-1 too.
Reply: 97% (active)

Query: Check Cc1cc[n+](C2=C(Nc3cccc(C(F)(F)F)c3)C(=O)c3ccccc3C2=O)cc1 too.
Reply: 10% (inactive)

Query: Check O=[N+]([O-])c1cc(S(=O)(=O)F)ccc1Cl too.
Reply: 100% (active)

Query: Check C/C(=N\O)c1ccc2ccc3ccccc3c2c1 too.
Reply: 94% (active)

Query: Check C/C(CCl)=N/NC1=NC(c2ccccc2Cl)P(=O)(NCCCNP2(=O)SC(N/N=C(/C)CCl)=NC2c2ccccc2Cl)S1 (stereo unspecified) too.
Reply: -1% (inactive)

Query: Check c1ccc2cc3n[se]nc3cc2c1 too.
Reply: 93% (active)

Query: Check COc1ccc(/C=C(/C)[N+](=O)[O-])cc1 too.
Reply: 99% (active)

Query: Check CCc1cccc(C(C)C)c1NC1=C([n+]2ccc(C)cc2)C(=O)c2ccccc2C1=O too.
Reply: 17% (inactive)

Query: Check CCC1(O)C(=O)OCc2c1cc1n(c2=O)Cc2cc3ccccc3nc2-1 (stereo unspecified) too.
Reply: 82% (active)

---

# ASSAY_OVERVIEW: NCI Yeast Anticancer Drug Screen. Data for the bub3 strain (AID 167)
# CONDITIONS: S. cerevisiae bub3 mutant strain, at 5.0 µM (retest, dose inferred, filed as 0.5), active compounds read high
Compounds without any hit were thinned out: in the full panel of roughly 79,000, 15% have a hit.
PROPERTY_MEASURED: growth inhibition (%)
All answers are understood in %, so give the number only.

Query: Fill in the blank: the reported growth inhibition of O=c1oc2ccccc2c(O)c1C(C/C(CCN1CCCC1)=N\Nc1ccccc1)c1ccccc1 (stereo unspecified) is ____.
Reply: -13

Query: Check CC(C)(C)OC(=O)NC(CSC(c1ccccc1)(c1ccccc1)c1cccs1)C(=O)O (stereo unspecified) too.
Reply: 9

Query: Check [Cl][Pt+2][Cl].[NH-]C(c1ccccc1)C([NH-])c1ccccc1 (stereo unspecified) too.
Reply: -9

Query: Check S=P(Nc1ccccc1)(Nc1ccccc1)Oc1ccccc1 too.
Reply: 9

Query: Check Oc1ccc([Te]CCNCC[Te]c2ccc(O)cc2)cc1 too.
Reply: 29

Query: Check Oc1cccc2nc3ccccc3nc12 too.
Reply: -3

Query: Check ClCCN(CCCl)c1ccc(C2N(Cc3ccc(Cl)cc3)CCCN2Cc2ccc(Cl)cc2)cc1 too.
Reply: 7

Query: Check O=C1[O][Hg][c]2cccc3cccc1c23 too.
Reply: 100

Query: Check CC1(Cl)CC(C)(/C=C/Cl)C(Cl)CC1Cl (stereo unspecified) too.
Reply: -3

Query: Check O=S(=O)([O-])[O-].[OH3+].[OH3+].[OH3+].[Ru+2].c1ccccc1 too.
Reply: -11

Query: Check C=C1C(C)C2C(Cc3ccccc3)NC(=O)C23C(OC(C)=O)C=CC(C)(O)C(=O)C(C)C/C=C/C3C1O (stereo unspecified) too.
Reply: 71

Query: Check FC(F)(F)c1cccc(CCl)c1 too.
Reply: -3

Query: Check O=C1c2ccccc2-c2c3c(cc4ccnc1c24)OCO3 too.
Reply: 61

Query: Check CCOP(=O)(OCC)/C(C#N)=C/c1ccccc1Cl too.
Reply: 0

Query: Check CCOC(=O)C(NC(=O)C(Cc1ccc(N(CCCl)CCCl)cc1)NC(C)=O)C(C)C (stereo unspecified) too.
Reply: -2

Query: Check CCN(CC)C(=S)S too.
Reply: 65

Query: Check CCC(C)(C)c1ccc(O)cc1 too.
Reply: 2

Query: Check CCCCCC(Cn1ccnc1)c1ccc(Cl)cc1Cl (stereo unspecified) too.
Reply: 72

Query: Check CCCCCCCCCCCC[As](=O)(O)O too.
Reply: 3

Query: Check CC1CC(C)CC(C)C(O)/C(C#N)=C/C=C/CC(C2CCCC2C(=O)O)OC(=O)CC(O)C(C)C1 (stereo unspecified) too.
Reply: 10

Query: Check COc1ccc(OC)c(C=O)c1 too.
Reply: 2

Query: Check C=C[C@H]1CN2CC[C@H]1C[C@@H]2[C@@H](O)c1ccnc2ccccc12 too.
Reply: -8

Query: Check CC(=O)C1C2c3ccccc3C(c3ccccc32)C1C (stereo unspecified) too.
Reply: -9

Query: Check CN1c2cccc[c]2[Sn]([CH3])([CH3])[c]2ccccc21 too.
Reply: 7

Query: Check N#Cc1ccccc1C(Cl)(Cl)Cl too.
Reply: 26

Query: Check Fc1ccc(NP(=S)(Nc2ccc(F)cc2F)Nc2ccc(F)cc2F)c(F)c1 too.
Reply: 26

---

# ASSAY_OVERVIEW: NCI Yeast Anticancer Drug Screen. Data for the sgs1 mgt1 strain (AID 161);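 also: 0% = growth of cultures given vehicle only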
# CONDITIONS: S. cerevisiae sgs1 mgt1 strain, at 5.0 µM (retest, dose inferred, filed as 0.5), active compounds read high
About 79,000 compounds went through this panel and 15% of them were active in at least one assay; those are over-represented in the sample as a whole.
PROPERTY_MEASURED: growth inhibition (%)
All answers are understood in %, so give the number only.

Query: Fill in the blank: the reported growth inhibition of C=C(C)C(=O)OC1CCC2(C)C(CCC3C2CCC2(C)C(c4ccc(=O)oc4)CC4OC432)C1 (configuration not stated) is ____.
Reply: -10

Query: Check Cc1cc(N(CCCl)CCCl)ccc1CN1CCCN(Cc2ccc(N(CCCl)CCCl)cc2C)C1c1ccc(N(CCCl)CCCl)cc1C too.
Reply: 2

Query: Check COC(=O)C1=C(C)NC(=S)NC1c1ccc(N(CCCl)CCCl)cc1Cl (configuration not stated) too.
Reply: 1

Query: Check CC12CCC3C(CCC4CC(N5CCCCC5)=CCC43C)C1CCC2O (configuration not stated) too.
Reply: 5

Query: Check CC#C[P+](c1ccccc1)(c1ccccc1)c1ccccc1 too.
Reply: 90

Query: Check CC(C)C(=O)CP(=O)(O)O too.
Reply: -9

Query: Check CCOC(=O)C1([Se]c2ccccc2)CCCC1=O (configuration not stated) too.
Reply: -3
